SYSTEM_UNDER_TEST: Bromodomain-containing protein 4 (Homo sapiens)
TEST_DETAILS: Inhibition of recombinant human N-terminal His6-tagged BRD4 at 20 uM by TR-FRET assay relative to control
Calls of active or inactive are those of the source. The rule behind the calls is not given here.
PROPERTY: inhibition

Check out these entries, answers already filled in.
- COMPOUND: "O=C1C(=O)N(CCCOc2ccccc2)c2ccc(Cl)cc21"
  inhibition: "65.9%"
- COMPOUND: "COCCOc1ccccc1CNc1ccc2c(c1)n(C)c(=O)n2C"
  inhibition: "63.4%"
- COMPOUND: "Cc1cc2cc(N)ccc2[nH]1"
  inhibition: "Active"
- COMPOUND: "Cc1cc2cc(NC(=O)c3sc4nc(C(F)(F)F)ccc4c3C)ccc2[nH]1"
  inhibition: "72.7%"
- COMPOUND: "Cn1cc(NC(=O)c2occc2COc2ccccc2)ccc1=O"
  inhibition: "64.4%"
- COMPOUND: "Cc1ccc(C(=O)Nc2ccc3nc(N4CCCC4)sc3c2)cc1[N+](=O)[O-]"
  inhibition: "72.4%"
- COMPOUND: "Cc1cc2cc(NC(=O)c3ccc(Oc4ccc(C(F)(F)F)cn4)cc3)ccc2[nH]1"
  inhibition: "63.3%"
- COMPOUND: "Cn1c(=O)n(C)c2cc(N)ccc21"
  inhibition: "Active"

With Bromodomain-containing protein 4 (Homo sapiens) as the test system, provide measured inhibition for this compound: Cc1nc(-c2cccc(NC(=O)c3ccc4[nH]c(C)c(C)c4c3)c2)cs1
80.5%

Give inhibition for this entry on Bromodomain-containing protein 4 (Homo sapiens): CC1CCCC(C)N1C(=O)CSc1nc2sc3c(c2c(=O)n1C)CCCC3 (centres undefined)
68.2%

Lab note: record inhibition of Cn1c(=O)n(C)c2cc(NC(=O)c3cc4c(s3)CCC4)ccc21 tested on Bromodomain-containing protein 4 (Homo sapiens).
76.5%

Please tell me the measured inhibition for COc1ccc(OC)c(CCC(=O)Nc2ccc3c(c2)n(C)c(=O)n3C)c1 ; system: Bromodomain-containing protein 4 (Homo sapiens).
67%

Enter inhibition (test system Bromodomain-containing protein 4 (Homo sapiens)) for Nc1ccc2nc(N3CCCC3)sc2c1
Active

----------
SYSTEM_UNDER_TEST: Bromodomain-containing protein 4 (Homo sapiens, UniProt O60885)
TEST_DETAILS: Binding affinity to recombinant human N-terminal His6-tagged BRD4 bromodomain 1 (44 to 168 residues) expressed in Escherichia coli BL21(DE3) assessed as change in melting temperature at 20 uM by differential scanning fluorimetry
PROPERTY: ΔTm (°C)

Solved cases below.
- COMPOUND: "Cc1cc2cc(NC(=O)c3sc4nc(C(F)(F)F)ccc4c3C)ccc2[nH]1"
  SYSTEM_UNDER_TEST: "Bromodomain-containing protein 4 (Homo sapiens, UniProt O60885)"
  PROPERTY: "ΔTm"
  VALUE_OBSERVED: 1.39
- COMPOUND: "O=C1C(=O)N(CCCOc2ccccc2)c2ccc(Cl)cc21"
  SYSTEM_UNDER_TEST: "Bromodomain-containing protein 4 (Homo sapiens, UniProt O60885)"
  PROPERTY: "ΔTm"
  VALUE_OBSERVED: -2.63
- COMPOUND: "Nc1ccc2nc(N3CCCC3)sc2c1"
  SYSTEM_UNDER_TEST: "Bromodomain-containing protein 4 (Homo sapiens, UniProt O60885)"
  PROPERTY: "ΔTm"
  VALUE_OBSERVED: 1.7
- COMPOUND: "Cc1nc(-c2cccc(NC(=O)c3ccc4[nH]c(C)c(C)c4c3)c2)cs1"
  SYSTEM_UNDER_TEST: "Bromodomain-containing protein 4 (Homo sapiens, UniProt O60885)"
  PROPERTY: "ΔTm"
  VALUE_OBSERVED: 1.2
- COMPOUND: "Cn1c(=O)n(C)c2cc(NC(=O)c3cc4c(s3)CCC4)ccc21"
  SYSTEM_UNDER_TEST: "Bromodomain-containing protein 4 (Homo sapiens, UniProt O60885)"
  PROPERTY: "ΔTm"
  VALUE_OBSERVED: 1.88

I: Cc1cc2cc(N)ccc2[nH]1
II: COc1ccc(OC)c(CCC(=O)Nc2ccc3c(c2)n(C)c(=O)n3C)c1
Which entry has a larger number for ΔTm, I or II ? Bench note: the answer is the label of the chosen record.
I
(I: 1.4 °C, II: 0.82 °C)

P: CC1CCCC(C)N1C(=O)CSc1nc2sc3c(c2c(=O)n1C)CCCC3 (stereo not given)
Q: Cn1c(=O)n(C)c2cc(N)ccc21
Pick one: P or Q . Which one has the lower reported ΔTm? Selection: enter the item's label.
P
(P: -1.85 °C, Q: 2.8 °C)
